Values from patent US7064128B2

Quick reference for IC50 among some compounds
Target: N-type calcium channels (α1B+α2δ+β1b cDNA subunits) (Rattus norvegicus, UniProt Q02294)
Construct: expressed in transfected cells
Sequence (Q02294 whole entry): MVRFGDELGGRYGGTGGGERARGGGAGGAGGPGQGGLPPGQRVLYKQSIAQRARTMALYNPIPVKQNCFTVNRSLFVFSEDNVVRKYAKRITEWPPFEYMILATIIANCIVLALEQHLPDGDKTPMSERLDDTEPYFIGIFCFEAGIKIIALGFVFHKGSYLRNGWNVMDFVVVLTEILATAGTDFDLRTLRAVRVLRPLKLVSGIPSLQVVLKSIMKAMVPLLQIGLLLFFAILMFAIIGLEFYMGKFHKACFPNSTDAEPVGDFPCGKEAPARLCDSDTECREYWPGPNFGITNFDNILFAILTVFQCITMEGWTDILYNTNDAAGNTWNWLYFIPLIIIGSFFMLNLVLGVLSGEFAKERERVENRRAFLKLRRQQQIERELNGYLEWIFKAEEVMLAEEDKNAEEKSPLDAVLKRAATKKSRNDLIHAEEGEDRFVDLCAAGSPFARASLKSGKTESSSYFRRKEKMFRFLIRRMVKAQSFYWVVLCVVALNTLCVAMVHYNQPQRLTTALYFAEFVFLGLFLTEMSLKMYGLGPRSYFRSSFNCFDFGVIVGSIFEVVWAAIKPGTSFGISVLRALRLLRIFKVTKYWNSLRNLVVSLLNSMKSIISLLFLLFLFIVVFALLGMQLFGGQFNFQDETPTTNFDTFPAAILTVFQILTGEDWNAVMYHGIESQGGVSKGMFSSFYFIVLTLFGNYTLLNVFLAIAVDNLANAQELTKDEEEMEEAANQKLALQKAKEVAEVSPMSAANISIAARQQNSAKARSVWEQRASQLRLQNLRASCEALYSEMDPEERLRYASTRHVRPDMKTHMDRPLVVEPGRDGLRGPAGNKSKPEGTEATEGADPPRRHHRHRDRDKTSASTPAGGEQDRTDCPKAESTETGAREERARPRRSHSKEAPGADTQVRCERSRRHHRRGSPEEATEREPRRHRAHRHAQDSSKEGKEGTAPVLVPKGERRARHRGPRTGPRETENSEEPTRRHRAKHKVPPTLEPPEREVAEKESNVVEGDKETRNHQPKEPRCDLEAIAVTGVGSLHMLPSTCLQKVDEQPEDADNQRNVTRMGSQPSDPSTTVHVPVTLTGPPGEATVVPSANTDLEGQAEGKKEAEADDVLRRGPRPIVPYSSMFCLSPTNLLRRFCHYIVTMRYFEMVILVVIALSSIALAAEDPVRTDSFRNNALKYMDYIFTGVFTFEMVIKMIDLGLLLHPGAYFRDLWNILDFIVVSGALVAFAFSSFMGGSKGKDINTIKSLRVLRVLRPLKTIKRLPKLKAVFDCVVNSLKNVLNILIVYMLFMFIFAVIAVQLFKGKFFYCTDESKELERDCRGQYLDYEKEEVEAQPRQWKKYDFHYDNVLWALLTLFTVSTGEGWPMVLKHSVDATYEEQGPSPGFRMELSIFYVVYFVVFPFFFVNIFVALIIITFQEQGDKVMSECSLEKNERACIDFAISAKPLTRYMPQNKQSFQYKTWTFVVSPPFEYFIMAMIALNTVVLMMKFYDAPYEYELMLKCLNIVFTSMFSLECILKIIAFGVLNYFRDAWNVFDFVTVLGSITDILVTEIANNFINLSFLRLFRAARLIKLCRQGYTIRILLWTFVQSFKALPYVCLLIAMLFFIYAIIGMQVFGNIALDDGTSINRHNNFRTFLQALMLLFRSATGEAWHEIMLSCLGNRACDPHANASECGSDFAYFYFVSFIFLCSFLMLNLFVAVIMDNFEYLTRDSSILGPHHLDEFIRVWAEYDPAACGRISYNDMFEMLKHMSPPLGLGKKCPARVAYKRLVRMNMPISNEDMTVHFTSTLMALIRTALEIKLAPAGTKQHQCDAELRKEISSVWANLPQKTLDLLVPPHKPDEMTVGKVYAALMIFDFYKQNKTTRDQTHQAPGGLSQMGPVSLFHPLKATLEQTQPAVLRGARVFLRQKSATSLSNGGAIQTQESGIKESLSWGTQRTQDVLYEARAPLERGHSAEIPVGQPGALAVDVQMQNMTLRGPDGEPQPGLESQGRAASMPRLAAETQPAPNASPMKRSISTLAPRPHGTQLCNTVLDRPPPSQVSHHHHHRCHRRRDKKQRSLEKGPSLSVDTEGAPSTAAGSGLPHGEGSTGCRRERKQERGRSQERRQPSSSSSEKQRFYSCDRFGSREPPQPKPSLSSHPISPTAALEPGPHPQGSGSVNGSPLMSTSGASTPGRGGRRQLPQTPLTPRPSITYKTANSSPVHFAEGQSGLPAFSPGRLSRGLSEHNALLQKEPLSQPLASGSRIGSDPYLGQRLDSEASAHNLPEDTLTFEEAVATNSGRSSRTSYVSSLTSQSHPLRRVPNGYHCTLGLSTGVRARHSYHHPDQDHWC
Sequence (P54290 25-944 partner limits assumed): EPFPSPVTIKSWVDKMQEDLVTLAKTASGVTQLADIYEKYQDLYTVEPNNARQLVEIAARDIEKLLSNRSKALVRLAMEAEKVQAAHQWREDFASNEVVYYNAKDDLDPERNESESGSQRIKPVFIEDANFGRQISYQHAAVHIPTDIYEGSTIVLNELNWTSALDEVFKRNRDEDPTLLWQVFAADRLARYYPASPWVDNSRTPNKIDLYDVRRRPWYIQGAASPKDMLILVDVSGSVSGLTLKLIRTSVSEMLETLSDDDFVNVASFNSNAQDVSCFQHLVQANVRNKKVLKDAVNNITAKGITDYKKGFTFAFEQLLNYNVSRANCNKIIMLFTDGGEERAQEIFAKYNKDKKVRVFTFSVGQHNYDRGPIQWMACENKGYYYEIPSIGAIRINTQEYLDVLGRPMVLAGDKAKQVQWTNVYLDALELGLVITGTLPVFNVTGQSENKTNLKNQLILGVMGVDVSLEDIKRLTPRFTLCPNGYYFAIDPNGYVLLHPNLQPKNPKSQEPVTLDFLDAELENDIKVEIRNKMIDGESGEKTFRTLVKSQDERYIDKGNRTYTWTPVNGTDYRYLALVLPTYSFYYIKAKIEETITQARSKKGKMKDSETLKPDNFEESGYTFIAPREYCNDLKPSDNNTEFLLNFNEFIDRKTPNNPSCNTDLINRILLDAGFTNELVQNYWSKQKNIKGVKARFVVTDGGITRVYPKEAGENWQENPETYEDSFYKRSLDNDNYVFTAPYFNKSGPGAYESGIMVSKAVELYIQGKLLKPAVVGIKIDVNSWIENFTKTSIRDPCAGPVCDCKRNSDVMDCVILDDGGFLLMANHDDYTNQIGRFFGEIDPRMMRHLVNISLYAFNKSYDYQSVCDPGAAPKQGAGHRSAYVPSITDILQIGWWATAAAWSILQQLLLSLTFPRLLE
Sequence (P54290 945-1091 partner limits assumed): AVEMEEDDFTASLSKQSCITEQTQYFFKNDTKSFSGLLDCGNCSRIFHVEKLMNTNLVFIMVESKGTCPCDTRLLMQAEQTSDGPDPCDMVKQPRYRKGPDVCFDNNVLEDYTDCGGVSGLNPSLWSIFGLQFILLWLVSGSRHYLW
Sequence (P54283 whole entry partner): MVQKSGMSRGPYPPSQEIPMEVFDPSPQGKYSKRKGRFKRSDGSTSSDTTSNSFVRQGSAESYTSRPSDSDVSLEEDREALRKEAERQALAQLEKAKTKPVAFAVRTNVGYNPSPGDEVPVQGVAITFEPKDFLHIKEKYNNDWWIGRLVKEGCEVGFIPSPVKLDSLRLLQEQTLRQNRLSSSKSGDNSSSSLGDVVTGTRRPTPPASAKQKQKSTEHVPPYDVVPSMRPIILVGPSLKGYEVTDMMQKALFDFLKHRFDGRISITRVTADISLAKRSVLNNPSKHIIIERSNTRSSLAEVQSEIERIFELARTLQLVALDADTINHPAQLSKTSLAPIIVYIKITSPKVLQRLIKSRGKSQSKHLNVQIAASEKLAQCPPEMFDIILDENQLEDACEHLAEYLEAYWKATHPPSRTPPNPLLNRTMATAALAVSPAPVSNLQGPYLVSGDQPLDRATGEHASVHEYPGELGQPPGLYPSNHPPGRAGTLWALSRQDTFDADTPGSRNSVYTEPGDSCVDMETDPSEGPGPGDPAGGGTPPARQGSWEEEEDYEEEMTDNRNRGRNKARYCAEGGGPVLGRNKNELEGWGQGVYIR
Method notes: Whole cell patch clamp, tonic and frequency dependent block, N-type channels in HEK 293 (Example 5)
Format: cell-based
Measurement context: α1B (N-type), 0.2 Hz; read-out: Estimated IC50 (μM) 0.2 Hz
Just the number in µM, nothing appended.

Solved cases (8 shown):
Compound | Target | Units symbol | IC50
O=C(CC(c1ccccc1)c1ccccc1)N1CCN(C(c2ccccc2)c2ccccc2)CC1 | N-type calcium channels (α1B+α2δ+β1b cDNA subunits) (Rattus norvegicus, UniProt Q02294) | µM | 0.04
COc1cc(C(=O)N2CCN(C(c3ccc(F)cc3)c3ccc(F)cc3)CC2)cc(OC)c1OC | N-type calcium channels (α1B+α2δ+β1b cDNA subunits) (Rattus norvegicus, UniProt Q02294) | µM | 0.07
O=C(CCCCC(c1ccccc1)c1ccccc1)N1CCN(C/C=C/c2ccccc2)CC1 [MC-34D] | N-type calcium channels (α1B+α2δ+β1b cDNA subunits) (Rattus norvegicus, UniProt Q02294) | µM | 0.05
O=C(CCCCC(c1ccccc1)c1ccccc1)N1CCC(NCC2CCCCC2)CC1 | N-type calcium channels (α1B+α2δ+β1b cDNA subunits) (Rattus norvegicus, UniProt Q02294) | µM | 0.06
COc1ccc(CN2CCN(C(c3ccc(F)cc3)c3ccc(F)cc3)CC2)c(OC)c1OC [39-36-1 Lomerizine, Lomerizine, reference compound] | N-type calcium channels (α1B+α2δ+β1b cDNA subunits) (Rattus norvegicus, UniProt Q02294) | µM | 0.09
O=C(/C=C/c1ccc2c(c1)OCO2)N1CCN(C(=O)CCCCC(c2ccccc2)c2ccccc2)CC1 [SH-123B] | N-type calcium channels (α1B+α2δ+β1b cDNA subunits) (Rattus norvegicus, UniProt Q02294) | µM | 0.13
Nc1ccc(/C=C/C(=O)N2CCN(C(=O)CCCCC(c3ccccc3)c3ccccc3)CC2)cc1 | N-type calcium channels (α1B+α2δ+β1b cDNA subunits) (Rattus norvegicus, UniProt Q02294) | µM | 0.15
COc1ccc(/C=C/C(=O)N2CCN(C(=O)CCCCC(c3ccccc3)c3ccccc3)CC2)cc1 [SH-123A] | N-type calcium channels (α1B+α2δ+β1b cDNA subunits) (Rattus norvegicus, UniProt Q02294) | µM | 0.09

Task: Given the compound COc1cc(CN2CCN(CCCCCC(c3ccc(F)cc3)c3ccc(F)cc3)CC2)cc(OC)c1OC , write its reported IC50.
Result: 0.03

Task: Let me know recorded IC50 for CC(=O)Nc1ccc(/C=C/C(=O)N2CCN(C(=O)CCCCC(c3ccccc3)c3ccccc3)CC2)cc1 , thanks.
Result: 0.14

* * *

Target: P/Q-type channels (α1A+α2δ+β1b cDNA subunits)
Method notes: Whole cell patch clamp, tonic and frequency dependent block, P/Q-type channels in HEK 293 (Example 5)
Assay type: cell-based
Measurement context: Table 4 summary, 0.2 Hz, P/Q-type; unit not given in Table 4 (μM in Table 2); read-out: P/Q (IC50 values)
Procedure: N-type calcium channel blocking activity was assayed in human embryonic kidney cells, HEK 293, stably transfected with the rat brain N-type calcium channel subunits (α1B+α2δ+β1b cDNA subunits). […] Whole cell patch clamp experiments were performed using an Axopatch 200B amplifier (Axon Instruments, Burlingame, Calif.) linked to a personal computer equipped with pCLAMP software. […] Data were analyzed using Clampfit (Axon Instruments) and SigmaPlot 4.0 (Jandel Scientific). […]
Mark met for IC50 under 0.09 µM, not met if at or over.

Molecule | Label class
O=C(CC(c1ccccc1)c1ccccc1)N1CCN(C(c2ccccc2)c2ccccc2)CC1 | not met
COc1cc(C(=O)N2CCN(C(c3ccc(F)cc3)c3ccc(F)cc3)CC2)cc(OC)c1OC | not met
O=C(CCCCC(c1ccccc1)c1ccccc1)N1CCN(C/C=C/c2ccccc2)CC1 [MC-34D] | met
CC(=O)Nc1ccc(/C=C/C(=O)N2CCN(C(=O)CCCCC(c3ccccc3)c3ccccc3)CC2)cc1 | not met

Task: Determine whether this molecule shows IC50 lower than 0.09 µM (ties excluded): COc1ccc(CN2CCN(C(c3ccc(F)cc3)c3ccc(F)cc3)CC2)c(OC)c1OC [39-36-1 Lomerizine, Lomerizine, reference compound]
Result: met

* * *

The molecules listed here are annotated with their IC50.
Target: P/Q-type channels (α1A+α2δ+β1b cDNA subunits) (UniProt P54282)
Method notes: Whole cell patch clamp, tonic and frequency dependent block, P/Q-type channels in HEK 293 (Example 5)
Format: cell-based
Measurement context: α1A (P/Q-type), 0.03 Hz; read-out: Estimated IC50 (μM) 0.03 Hz

Molecule | IC50
COc1cc(C(=O)N2CCN(C(c3ccc(F)cc3)c3ccc(F)cc3)CC2)cc(OC)c1OC [39-36-2] | 0.31 µM
O=C(CCCCC(c1ccccc1)c1ccccc1)N1CCC(NCC2CCCCC2)CC1 [JM-G-10] | 0.3 µM

Task: Please report IC50 for the following molecule: COc1ccc(/C=C/C(=O)N2CCN(C(=O)CCCCC(c3ccccc3)c3ccccc3)CC2)cc1 [SH-123A]
Result: 0.26 µM

Task: Please report IC50 for the following molecule: O=C(CC(c1ccccc1)c1ccccc1)N1CCN(C(c2ccccc2)c2ccccc2)CC1 [39-1-B4]
Result: 0.65 µM

Task: Give the value of IC50 reported for the following: O=C(/C=C/c1ccc2c(c1)OCO2)N1CCN(C(=O)CCCCC(c2ccccc2)c2ccccc2)CC1 [SH-123B]
Result: 0.55 µM

Task: Return the recorded IC50 value; entry: O=C(CCCCC(c1ccccc1)c1ccccc1)N1CCN(C/C=C/c2ccccc2)CC1 [MC-34D]
Result: 0.35 µM

* * *

Target: L-type channels (α1C+α2δ+β1b cDNA subunits) (UniProt P22002)
Construct: other: α1C (L-type), 100 nM, 0.03 Hz; other: α1C (L-type), 100 nM, 0.2 Hz; other: α1C (L-type), 0.03 Hz; other: α1C (L-type), 0.2 Hz
Method notes: Whole cell patch clamp, tonic and frequency dependent block, L-type channels in HEK 293 (Example 5)
Format: cell-based
Measurement context: α1C (L-type), 0.2 Hz; read-out: Estimated IC50 (μM) 0.2 Hz
Property measured: IC50 (µM)
Numeric answer only, unit µM assumed.

Consider the following illustrative entries.
Molecule | IC50 [µM]
COc1ccc(CN2CCN(C(c3ccc(F)cc3)c3ccc(F)cc3)CC2)c(OC)c1OC [39-36-1 Lomerizine, Lomerizine, reference compound] | 0.15
O=C(CCCCC(c1ccccc1)c1ccccc1)N1CCC(NCC2CCCCC2)CC1 | 0.3
O=C(CCCCC(c1ccccc1)c1ccccc1)N1CCN(C/C=C/c2ccccc2)CC1 [MC-34D] | 0.39
COc1cc(C(=O)N2CCN(C(c3ccc(F)cc3)c3ccc(F)cc3)CC2)cc(OC)c1OC | 0.4
COc1ccc(/C=C/C(=O)N2CCN(C(=O)CCCCC(c3ccccc3)c3ccccc3)CC2)cc1 [SH-123A] | 0.25
Nc1ccc(/C=C/C(=O)N2CCN(C(=O)CCCCC(c3ccccc3)c3ccccc3)CC2)cc1 | 0.83

Task: Provide one value: measured IC50 of COc1cc(CN2CCN(CCCCCC(c3ccc(F)cc3)c3ccc(F)cc3)CC2)cc(OC)c1OC
Result: 0.37

Task: Query IC50 for O=C(CC(c1ccccc1)c1ccccc1)N1CCN(C(c2ccccc2)c2ccccc2)CC1
Result: 0.3

Task: Input CC(=O)Nc1ccc(/C=C/C(=O)N2CCN(C(=O)CCCCC(c3ccccc3)c3ccccc3)CC2)cc1 , output reported IC50.
Result: 1.4

Task: Note IC50 for the molecule shown: O=C(/C=C/c1ccc2c(c1)OCO2)N1CCN(C(=O)CCCCC(c2ccccc2)c2ccccc2)CC1 [SH-123B]
Result: 0.74

* * *

Target: L-type channels (α1C+α2δ+β1b cDNA subunits) (UniProt P22002)
Construct: other: α1C (L-type), 100 nM, 0.03 Hz; other: α1C (L-type), 100 nM, 0.2 Hz; other: α1C (L-type), 0.03 Hz; other: α1C (L-type), 0.2 Hz
Method notes: Whole cell patch clamp, tonic and frequency dependent block, L-type channels in HEK 293 (Example 5)
Type: cell-based
Measurement context: α1C (L-type), 100 nM, 0.03 Hz
Below is a list of entries, each paired with its recorded % Block (100 nM) 0.03 Hz value.
// return numeric value only (unit: %, not printed)

Record excerpt, results attached:
Compound | Units symbol | % Block (100 nM) 0.03 Hz
O=C(CCCCC(c1ccccc1)c1ccccc1)N1CCC(NCC2CCCCC2)CC1 | % | 7
O=C(CCCCC(c1ccccc1)c1ccccc1)N1CCN(C/C=C/c2ccccc2)CC1 [MC-34D] | % | 14
COc1ccc(/C=C/C(=O)N2CCN(C(=O)CCCCC(c3ccccc3)c3ccccc3)CC2)cc1 [SH-123A] | % | 21
CC(=O)Nc1ccc(/C=C/C(=O)N2CCN(C(=O)CCCCC(c3ccccc3)c3ccccc3)CC2)cc1 | % | 4
COc1ccc(CN2CCN(C(c3ccc(F)cc3)c3ccc(F)cc3)CC2)c(OC)c1OC [39-36-1 Lomerizine, Lomerizine, reference compound] | % | 26

Task: Name the recorded % Block (100 nM) 0.03 Hz of the compound listed here: O=C(/C=C/c1ccc2c(c1)OCO2)N1CCN(C(=O)CCCCC(c2ccccc2)c2ccccc2)CC1 [SH-123B]
Result: 8
